# assaySummary: Toxicity liver stage against HepG2, at 10uM
# Assay type: cell-based
# Set-up: test concentration 10 uM, cell line HepG2-A16-CD81EGFP
# conditionLabel: human, HepG2-A16-CD81EGFP cells; read-out: INHIBITION
readoutName: cytotoxicity at 10 µM (%)
The reply should contain only the number, in %.

Worked cases, answers included:
Cc1noc(C)c1CNc1c(N2CCCC2)cccc1N1CCCC1 = 6.17
Cc1ncc(CNCC(C)O)c2cc(C(=O)c3ccc(Br)cc3)oc12 (stereo unspecified) = 1.39
CCCc1noc(CN2CCN(CCC(C)C)CC2)n1 = -1.48
Cc1ccc2nnc(C(=O)NCC3CCCC3)nc2c1 = 6.47
Fc1ccc(CNCCn2cccn2)c(F)c1 = 8.59

Assign cytotoxicity at 10 µM to the following record: CCC(Nc1nc(C(C)C)nc2c1cnn2C)c1ccncc1 (stereo unspecified)
-48
